Measured values drawn from PubChem BioAssay (NCI) for this set.

Tested on: MCF7 breast
Assay: NCI tumour cell line growth inhibition, 48 h; in the data active = GI50 below about 0.43 µM; inactive = the rest
Please state which outcome applies, choosing from active, inactive

# lookup: test call for O=[N+]([O-])c1cnc(Sc2ccncn2)s1
inactive

* * *

Test system: K-562 leukemia
Experiment: NCI tumour cell line growth inhibition, 48 h
Please provide measured TGI for the entries that follow.

Below, each entry is followed by its recorded TGI result.
compound="CC(=O)C(CN(C(C)C)C(C)C)C(c1ccccc1)c1c(O)c2ccccc2oc1=O (centres undefined)" property_name=TGI value_measured="> 100 µM"
compound=c1cc2c(cc1NC1=NCCO1)CCC2 property_name=TGI value_measured="> 10 µM"
compound=CSC(=N/C=C/c1ccccc1)SC property_name=TGI value_measured="> 100 µM"
compound=Cc1cccc2oc3c(CC(=O)O)cccc3c(=O)c12 property_name=TGI value_measured="> 100 µM"
compound=O=c1c2cccnc2n2n1Cc1ccccc1C2 property_name=TGI value_measured="> 100 µM"
compound=CCN(CC)c1ccc2cc(C(N)=O)c(=N)oc2c1 property_name=TGI value_measured="> 100 µM"
compound=CC1(C)CCc2ccc(OCCC(=O)O)cc2O1 property_name=TGI value_measured="> 100 µM"
compound="CN(CC(=O)N1CC(CCl)c2ccc([N+](=O)[O-])cc21)CC(=O)N1CC(CCl)c2ccc([N+](=O)[O-])cc21 (centres undefined)" property_name=TGI value_measured="> 100 µM"

Give one value of TGI per listed compound.
1. N/C(=N\N=C/c1ccc(O)c(O)c1O)NO
2. NC(N)=Nc1ccc(-c2ccc(N=C(N)N)cc2)cc1

1. 48 µM
2. > 100 µM

Quick one: give me TGI for each item below, same order please.
1. NC(CCCCCCCCCCP(=O)(O)O)C(=O)O (centres undefined)
2. CC(=O)N1[C@H](C(=O)O)CS[C@H]1c1ccncc1
3. C/C(=C\CO)CC/C=C(\C)CNc1c(F)c(F)c(F)c(F)c1F
4. N#Cc1cccc2c1Sc1ccccc1N2
5. CCOC(=O)C1=C(C)CC2C(=O)OC(=O)C2C1(C)C (centres undefined)
6. C=C1C[C@@H]2CC[C@@]34CC5O[C@H]6C(O[C@H]7CC[C@H](CC(=O)O[C@@H]8[C@@H](C)[C@@H]9O[C@@H]%10C[C@]%11(C[C@@H]%12O[C@]%13(C[C@H](C)[C@@H]%14O[C@@H]%15CC(C(O)CO)O[C@@H]%15C[C@@H]%14O%13)C[C@H](C)[C@@H]%12O%11)O[C@@H]%10C[C@@H]9O[C@H]8CC8O[C@@H](CC[C@@H]1O2)C[C@@H](C)C8(O)CO)O[C@@H]7[C@@H]6O3)[C@H]5O4 (some centres undefined)
7. S=C(N1CCN(c2ccc(Cl)c(Cl)c2)CC1)N1CCN(c2ccc(Cl)c(Cl)c2)CC1

1. > 100 µM
2. > 100 µM
3. 92 µM
4. > 100 µM
5. > 100 µM
6. > 1 µM
7. 26.7 µM
